test: Human HepG2 cell viability assay in 384 well format; type: toxicity, cell-based; parameters: dose 125 nL, time 70.5 hour; concentration not given beside the values; settings: HepG2 cells, read-out: Inhibition
endpoint: cytotoxicity at 70.5 h (%)
Numbers only, in %.

The cases that follow already have their cytotoxicity at 70.5 h on record.
compound=Cc1csc(C(=O)NCCn2nc(-n3cncn3)ccc2=O)c1 measurednumber=-6.83
compound=CCCn1ncc(CN(Cc2ccsc2)Cc2ccco2)c1C measurednumber=-6
compound=Cc1cc(C)n(C2CN(CC(=O)N(C)Cc3ccco3)C2)n1 measurednumber=-6.63
compound="CNc1ncc(CN(C)C(=O)c2ccc(C3CCCO3)s2)cn1 (centres undefined)" measurednumber=-3.31
compound=CN1C(=O)CCC12CCN(c1ccc(C#N)cn1)CC2 measurednumber=-8.99

For every item in the list below, what is its measured cytotoxicity at 70.5 h?
1. O=C(Cn1c(C(F)F)cc2cccnc21)NC1CCCC1
2. c1ccc2c(c1)CC(n1ccnc1-c1cc3n(n1)CCNC3)CO2 (centres undefined)
3. CN(Cc1ccccc1)C(=O)CCN1CCC2(CC1)[C@H](O)C[C@@H]2O

Output:
-2.74
1.41
-8.64
